Data origin, for the record: ChEMBL document CHEMBL3039007

- targetSystem: Solute carrier organic anion transporter family member 1B3 (Homo sapiens)
- Sequence (Q9NPD5 whole entry): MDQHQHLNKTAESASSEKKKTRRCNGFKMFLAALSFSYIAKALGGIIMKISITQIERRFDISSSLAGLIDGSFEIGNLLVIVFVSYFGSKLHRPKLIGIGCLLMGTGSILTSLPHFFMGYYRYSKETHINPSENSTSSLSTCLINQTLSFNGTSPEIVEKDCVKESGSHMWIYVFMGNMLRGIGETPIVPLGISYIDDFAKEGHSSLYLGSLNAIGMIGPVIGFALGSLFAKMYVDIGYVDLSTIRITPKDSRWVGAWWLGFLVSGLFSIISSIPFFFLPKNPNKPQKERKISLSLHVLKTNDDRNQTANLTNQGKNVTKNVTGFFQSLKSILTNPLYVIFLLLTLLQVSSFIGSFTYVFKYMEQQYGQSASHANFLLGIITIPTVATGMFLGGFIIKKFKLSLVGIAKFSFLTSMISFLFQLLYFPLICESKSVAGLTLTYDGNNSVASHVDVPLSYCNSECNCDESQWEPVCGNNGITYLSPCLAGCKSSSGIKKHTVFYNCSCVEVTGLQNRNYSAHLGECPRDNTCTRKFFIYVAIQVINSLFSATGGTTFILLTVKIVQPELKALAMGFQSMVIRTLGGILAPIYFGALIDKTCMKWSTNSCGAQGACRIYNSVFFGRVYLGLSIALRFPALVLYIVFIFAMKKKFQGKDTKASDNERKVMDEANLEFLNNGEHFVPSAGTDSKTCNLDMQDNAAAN
- conditionInfo: chinese hamster, cho, 10 µM
measure: residual activity

Example results:
[
  {
    "compound": "CC(=O)OCC(=O)[C@@]1(O)CC[C@H]2[C@@H]3CCC4=CC(=O)C=C[C@]4(C)[C@H]3[C@@H](O)C[C@@]21C [PREDNISOLONE ACETATE]",
    "targetSystem": "Solute carrier organic anion transporter family member 1B3 (Homo sapiens)",
    "residual activity": "106.7%"
  },
  {
    "compound": "O=C1C=CC(=O)c2c(O)cccc21",
    "targetSystem": "Solute carrier organic anion transporter family member 1B3 (Homo sapiens)",
    "residual activity": "93.79%"
  },
  {
    "compound": "C=C(C)[C@H]1Cc2c(ccc3c(=O)c4c(oc23)COc2cc(OC)c(OC)cc2-4)O1 [DEHYDROROTENONE]",
    "targetSystem": "Solute carrier organic anion transporter family member 1B3 (Homo sapiens)",
    "residual activity": "92.82%"
  },
  {
    "compound": "COc1cc(C(C)=O)cc(OC)c1O",
    "targetSystem": "Solute carrier organic anion transporter family member 1B3 (Homo sapiens)",
    "residual activity": "115.4%"
  },
  {
    "compound": "CC(=O)OC(C)C[N+](C)(C)C.[Cl-] (configuration not stated) [METHACHOLINE CHLORIDE]",
    "targetSystem": "Solute carrier organic anion transporter family member 1B3 (Homo sapiens)",
    "residual activity": "106.9%"
  }
]

Hey, quick one: what's residual activity for each of these?
1. C[N+]1(C)C[C@@H](O)C[C@@H]1C(=O)[O-]
2. CC[C@H]1OC(=O)[C@H](C)[C@@H](O[C@H]2C[C@@](C)(OC)[C@@H](O)[C@H](C)O2)[C@H](C)[C@@H](O[C@@H]2O[C@H](C)C[C@H](N(C)C)[C@H]2O)[C@](C)(OC)C[C@@H](C)C(=O)[C@H](C)[C@@H](O)[C@]1(C)O

Ans.
1: 105.3%; 2: 80.47%
